Molecular target: cAMP-dependent protein kinase (PKA)
Assay: PKA kinase inhibition assay with Kemptamide substrate, Literature Mimetic conditions, 0 h preincubation
assayEndpoint: pKi
Numbers only, as −log10 of the molar value.

Fill in the blank: the reported pKi of Ac-RRGAI-NH2 [pentapeptide pseudosubstrate inhibitor 20, Ac-RRGAI-NH2] is ____.
5.05
